Please respond with reported Drug uptake, Water for every item in the list.
assayed.system: UniProtKB Q9Y6L6
Sequence (Q9Y6L6 whole entry): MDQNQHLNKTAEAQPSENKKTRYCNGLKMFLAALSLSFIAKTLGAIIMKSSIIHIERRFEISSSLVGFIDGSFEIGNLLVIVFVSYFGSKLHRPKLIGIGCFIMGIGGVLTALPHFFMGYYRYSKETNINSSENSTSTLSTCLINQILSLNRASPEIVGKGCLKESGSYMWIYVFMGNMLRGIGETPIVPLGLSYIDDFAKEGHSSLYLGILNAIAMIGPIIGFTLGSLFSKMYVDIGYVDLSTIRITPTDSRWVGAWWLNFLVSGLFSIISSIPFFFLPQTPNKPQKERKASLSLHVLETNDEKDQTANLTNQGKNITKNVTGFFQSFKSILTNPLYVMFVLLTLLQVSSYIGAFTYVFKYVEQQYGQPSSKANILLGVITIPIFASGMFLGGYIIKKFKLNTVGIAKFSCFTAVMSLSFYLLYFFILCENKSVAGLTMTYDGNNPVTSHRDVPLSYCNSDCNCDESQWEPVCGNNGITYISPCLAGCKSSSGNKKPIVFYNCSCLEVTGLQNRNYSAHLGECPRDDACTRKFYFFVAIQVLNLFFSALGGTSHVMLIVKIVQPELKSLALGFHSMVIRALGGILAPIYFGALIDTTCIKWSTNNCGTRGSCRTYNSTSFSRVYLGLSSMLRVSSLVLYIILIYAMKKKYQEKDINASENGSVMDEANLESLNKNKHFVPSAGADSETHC
measurement.notes: Drug uptake in X. laevis oocytes injected with SLCO1B1
Type: in vitro ADME
measurement.setup: water injected control oocytes (Table 2); without human serum albumin; 1 µM (darunavir 3 µM), 18°C, 1hr; mean ± SD

Req: Data request, read-out Drug uptake, Water, for Cc1ccnc2c1NC(=O)c1cccnc1N2C1CC1
Resp: 2.14 ± 0.22 pmol/oocyte

Req: Quick check: Drug uptake, Water of CC(C)(C)NC(=O)[C@@H]1C[C@@H]2CCCC[C@@H]2CN1C[C@@H](O)[C@H](Cc1ccccc1)NC(=O)[C@H](CC(N)=O)NC(=O)c1ccc2ccccc2n1 ?
Resp: 0.94 ± 0.26 pmol/oocyte

Req: Value lookup for Drug uptake, Water; key = CC(C)CN(C[C@@H](O)[C@H](Cc1ccccc1)NC(=O)O[C@H]1CO[C@H]2OCC[C@H]21)S(=O)(=O)c1ccc(N)cc1
Resp: 2.12 ± 0.55 pmol/oocyte

Req: Field request: Drug uptake, Water | item: Cc1cccc(C)c1OCC(=O)N[C@@H](Cc1ccccc1)[C@@H](O)C[C@H](Cc1ccccc1)NC(=O)[C@H](C(C)C)N1CCCNC1=O
Resp: 2.14 ± 0.43 pmol/oocyte

Req: Look at this compound and give its reported Drug uptake, Water. O=C1Nc2ccc(Cl)cc2[C@@](C#CC2CC2)(C(F)(F)F)O1
Resp: 15.9 ± 1.70 pmol/oocyte

Req: Which value of Drug uptake, Water has been reported for C[C@]12CC[C@@H]3c4ccc(OS(=O)(=O)O)cc4CC[C@H]3[C@@H]1CCC2=O [estrone-3-sulphate] in the records?
Resp: 0.16 ± 0.04 pmol/oocyte

---

Field: Drug uptake, Water. Provide a value for each of the compounds that follow.
assayed.system: OATP1A2 (Homo sapiens)
measurement.notes: Drug uptake in X. laevis oocytes injected with SLCO1A2
Assay type: in vitro ADME
measurement.setup: water injected control oocytes (Table 1); without human serum albumin; 1 µM (darunavir 3 µM), 18°C, 1hr; mean ± SD
Only the number, expressed in pmol/oocyte, is required.

Req: Param item = O=C1Nc2ccc(Cl)cc2[C@@](C#CC2CC2)(C(F)(F)F)O1 [Efavirenz, efavirenz] ; retrieve measured Drug uptake, Water.
Resp: 12.6

Req: Quick one: Drug uptake, Water for Cc1ccnc2c1NC(=O)c1cccnc1N2C1CC1 [Nevirapine, nevirapine] ?
Resp: 2.65

Req: State the recorded Drug uptake, Water for this entry: CC(C)CN(C[C@@H](O)[C@H](Cc1ccccc1)NC(=O)O[C@H]1CO[C@H]2OCC[C@H]21)S(=O)(=O)c1ccc(N)cc1 [Darunavir, darunavir]
Resp: 2.18

Req: Consider the compound CC(C)(C)NC(=O)[C@@H]1C[C@@H]2CCCC[C@@H]2CN1C[C@@H](O)[C@H](Cc1ccccc1)NC(=O)[C@H](CC(N)=O)NC(=O)c1ccc2ccccc2n1 [Saquinavir, saquinavir] and give its measured Drug uptake, Water.
Resp: 1.01

Req: What does the data say about its Drug uptake, Water? Entry: C[C@]12CC[C@@H]3c4ccc(OS(=O)(=O)O)cc4CC[C@H]3[C@@H]1CCC2=O [estrone-3-sulphate]
Resp: 0.19

Req: I have this compound here, Cc1cccc(C)c1OCC(=O)N[C@@H](Cc1ccccc1)[C@@H](O)C[C@H](Cc1ccccc1)NC(=O)[C@H](C(C)C)N1CCCNC1=O [Lopinavir, lopinavir] , and I need its recorded Drug uptake, Water.
Resp: 2.53

---

assayed.system: OATP1A2 (Homo sapiens, UniProt P46721)
Sequence (P46721 1-670): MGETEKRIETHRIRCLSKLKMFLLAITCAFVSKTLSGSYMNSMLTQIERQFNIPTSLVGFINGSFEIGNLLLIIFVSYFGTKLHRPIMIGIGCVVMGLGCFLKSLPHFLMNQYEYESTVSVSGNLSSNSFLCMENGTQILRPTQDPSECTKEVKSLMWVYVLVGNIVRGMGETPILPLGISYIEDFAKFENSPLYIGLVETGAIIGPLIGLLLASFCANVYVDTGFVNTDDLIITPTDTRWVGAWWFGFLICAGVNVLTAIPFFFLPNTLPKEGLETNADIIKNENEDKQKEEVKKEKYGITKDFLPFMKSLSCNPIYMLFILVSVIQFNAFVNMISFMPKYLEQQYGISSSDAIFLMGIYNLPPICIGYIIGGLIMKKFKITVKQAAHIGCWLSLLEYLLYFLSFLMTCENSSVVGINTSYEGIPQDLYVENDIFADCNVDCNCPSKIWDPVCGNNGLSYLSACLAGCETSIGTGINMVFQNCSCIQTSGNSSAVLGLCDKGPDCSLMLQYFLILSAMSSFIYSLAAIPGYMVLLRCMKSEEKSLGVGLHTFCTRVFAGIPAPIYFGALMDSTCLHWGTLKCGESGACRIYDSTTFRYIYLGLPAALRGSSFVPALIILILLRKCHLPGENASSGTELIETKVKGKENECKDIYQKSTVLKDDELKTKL
measurement.notes: Drug uptake in X. laevis oocytes injected with SLCO1A2
Type: in vitro ADME
measurement.setup: OATP1A2 cRNA injected oocytes; without human serum albumin; 1 µM (darunavir 3 µM), 18°C, 1hr; mean ± SD
Answer each item with its documented Drug uptake, OATP1A2.
I only need the number, in pmol/oocyte, no unit after it.

Req: Report Drug uptake, OATP1A2 for Cc1cccc(C)c1OCC(=O)N[C@@H](Cc1ccccc1)[C@@H](O)C[C@H](Cc1ccccc1)NC(=O)[C@H](C(C)C)N1CCCNC1=O tested on OATP1A2 (Homo sapiens, UniProt P46721).
Resp: 4.07

Req: GET /values?readout=Drug uptake, OATP1A2&system=OATP1A2 (Homo sapiens, UniProt P46721)&item= CC(C)(C)NC(=O)[C@@H]1C[C@@H]2CCCC[C@@H]2CN1C[C@@H](O)[C@H](Cc1ccccc1)NC(=O)[C@H](CC(N)=O)NC(=O)c1ccc2ccccc2n1
Resp: 2.16

Req: Quick check: Drug uptake, OATP1A2 on OATP1A2 (Homo sapiens, UniProt P46721), item Cc1ccnc2c1NC(=O)c1cccnc1N2C1CC1 ?
Resp: 2.92

Req: API: value(readout= Drug uptake, OATP1A2, system= OATP1A2 (Homo sapiens, UniProt P46721), query= O=C1Nc2ccc(Cl)cc2[C@@](C#CC2CC2)(C(F)(F)F)O1 )
Resp: 10.3

Req: Entry C[C@]12CC[C@@H]3c4ccc(OS(=O)(=O)O)cc4CC[C@H]3[C@@H]1CCC2=O [estrone-3-sulphate] , system OATP1A2 (Homo sapiens, UniProt P46721): what Drug uptake, OATP1A2 was measured?
Resp: 2.02

Req: So what Drug uptake, OATP1A2 did CC(C)CN(C[C@@H](O)[C@H](Cc1ccccc1)NC(=O)O[C@H]1CO[C@H]2OCC[C@H]21)S(=O)(=O)c1ccc(N)cc1 get with OATP1A2 (Homo sapiens, UniProt P46721)?
Resp: 4.32

---

assayed.system: OATP1A2 (Homo sapiens)
measurement.notes: Drug uptake in X. laevis oocytes injected with SLCO1A2
Format: in vitro ADME
measurement.setup: OATP1A2 cRNA injected oocytes; with 2% human serum albumin; 1 µM (darunavir 3 µM), 18°C, 1hr; mean ± SD
Classify as follows. Reported Drug uptake, OATP1A2 greater than or equal to 2 pmol/oocyte: 1. Reported Drug uptake, OATP1A2 below: -1.

Req: Quick check: does CC(C)(C)NC(=O)[C@@H]1C[C@@H]2CCCC[C@@H]2CN1C[C@@H](O)[C@H](Cc1ccccc1)NC(=O)[C@H](CC(N)=O)NC(=O)c1ccc2ccccc2n1 [Saquinavir, saquinavir] have Drug uptake, OATP1A2 greater than or equal to 2 pmol/oocyte?
Resp: -1

Req: Check the entry Cc1cccc(C)c1OCC(=O)N[C@@H](Cc1ccccc1)[C@@H](O)C[C@H](Cc1ccccc1)NC(=O)[C@H](C(C)C)N1CCCNC1=O [Lopinavir, lopinavir] : does Drug uptake, OATP1A2 equal or exceed 2 pmol/oocyte?
Resp: -1

Req: Is Drug uptake, OATP1A2 for O=C1Nc2ccc(Cl)cc2[C@@](C#CC2CC2)(C(F)(F)F)O1 [Efavirenz, efavirenz] at or above 2 pmol/oocyte?
Resp: -1

Req: Could you tell me if the measured Drug uptake, OATP1A2 of Cc1ccnc2c1NC(=O)c1cccnc1N2C1CC1 [Nevirapine, nevirapine] reaches 2 pmol/oocyte or more?
Resp: 1

Req: Given the entry C[C@]12CC[C@@H]3c4ccc(OS(=O)(=O)O)cc4CC[C@H]3[C@@H]1CCC2=O [estrone-3-sulphate] , answer whether its Drug uptake, OATP1A2 meets or surpasses 2 pmol/oocyte.
Resp: -1

Req: Does the molecule CC(C)CN(C[C@@H](O)[C@H](Cc1ccccc1)NC(=O)O[C@H]1CO[C@H]2OCC[C@H]21)S(=O)(=O)c1ccc(N)cc1 [Darunavir, darunavir] have recorded Drug uptake, OATP1A2 that is 2 pmol/oocyte or more?
Resp: 1

---

assayed.system: OATP1B3 (Homo sapiens)
Sequence (Q9NPD5 whole entry): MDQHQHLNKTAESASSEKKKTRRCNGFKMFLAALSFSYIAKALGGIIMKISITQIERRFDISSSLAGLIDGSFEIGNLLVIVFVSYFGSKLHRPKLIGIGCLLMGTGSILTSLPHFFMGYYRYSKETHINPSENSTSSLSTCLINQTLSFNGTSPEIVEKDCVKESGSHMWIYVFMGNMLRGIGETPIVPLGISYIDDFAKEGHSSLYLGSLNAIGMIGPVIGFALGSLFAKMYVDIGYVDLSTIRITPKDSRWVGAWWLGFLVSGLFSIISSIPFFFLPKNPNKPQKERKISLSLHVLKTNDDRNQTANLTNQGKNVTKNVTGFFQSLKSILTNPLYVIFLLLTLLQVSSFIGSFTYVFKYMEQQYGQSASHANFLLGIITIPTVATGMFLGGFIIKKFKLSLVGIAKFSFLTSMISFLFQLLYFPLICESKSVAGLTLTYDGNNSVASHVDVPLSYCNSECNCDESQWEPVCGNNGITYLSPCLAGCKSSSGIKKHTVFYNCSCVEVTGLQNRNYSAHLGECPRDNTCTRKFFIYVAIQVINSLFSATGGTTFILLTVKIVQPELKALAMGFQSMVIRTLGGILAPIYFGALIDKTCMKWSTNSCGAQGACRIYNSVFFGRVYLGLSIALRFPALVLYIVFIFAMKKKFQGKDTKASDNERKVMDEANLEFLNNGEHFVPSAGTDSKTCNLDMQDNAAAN
measurement.notes: Drug uptake in X. laevis oocytes injected with SLCO1B3
Format: in vitro ADME
measurement.setup: OATP1B3 cRNA injected oocytes; without human serum albumin; 1 µM (darunavir 3 µM, performed once), 18°C, 1hr; mean ± SD
Give measured Drug uptake, OATP1B3 for each item. Keep answers brief.
Supply the numeric figure in pmol/oocyte, leaving out any unit text.

Req: # Drug uptake, OATP1B3 lookup, item Cc1ccnc2c1NC(=O)c1cccnc1N2C1CC1
Resp: 3.12

Req: Suppose we examine the compound C[C@]12CC[C@@H]3c4ccc(OS(=O)(=O)O)cc4CC[C@H]3[C@@H]1CCC2=O [estrone-3-sulphate] ; what Drug uptake, OATP1B3 value has been reported?
Resp: 0.50

Req: Which measured Drug uptake, OATP1B3 value corresponds to O=C1Nc2ccc(Cl)cc2[C@@](C#CC2CC2)(C(F)(F)F)O1 ?
Resp: 18.21

Req: Which value of Drug uptake, OATP1B3 has been reported for Cc1cccc(C)c1OCC(=O)N[C@@H](Cc1ccccc1)[C@@H](O)C[C@H](Cc1ccccc1)NC(=O)[C@H](C(C)C)N1CCCNC1=O in the records?
Resp: 2.30

Req: Query: Drug uptake, OATP1B3; subject: CC(C)CN(C[C@@H](O)[C@H](Cc1ccccc1)NC(=O)O[C@H]1CO[C@H]2OCC[C@H]21)S(=O)(=O)c1ccc(N)cc1
Resp: 5.41

Req: // Drug uptake, OATP1B3 lookup, key: CC(C)(C)NC(=O)[C@@H]1C[C@@H]2CCCC[C@@H]2CN1C[C@@H](O)[C@H](Cc1ccccc1)NC(=O)[C@H](CC(N)=O)NC(=O)c1ccc2ccccc2n1
Resp: 2.17
